test: Single dose oral pharmacokinetic study; design: species or system mice; settings: mouse, in vivo; Mice oral PK @30 mg/kg; plasma; read-out: AUC 0-t
Provide the reported AUC(0-t) of each item.
Could you kindly put the unit after your number?

{"columns": ["entry smiles", "assay readout", "test result"],
 "data": [
  ["C=C(C)[C@@H]1CC[C@]2(C(=O)N3CCC[C@H]3c3nc(-c4ccccc4)cn3CCP(=O)(OCC)OCC)CC[C@]3(C)[C@H](CC[C@@H]4[C@@]5(C)CC[C@H](OC(=O)[C@H]6C[C@@H](C(=O)O)C6(C)C)C(C)(C)[C@@H]5CC[C@]43C)[C@@H]12", "AUC(0-t)", "215 µg·h/mL"]
]}

Shifting focus to the molecule that follows.
Any idea what its AUC(0-t) is? The molecule is `C=C(C)[C@@H]1CC[C@]2(C(=O)N3CCC[C@H]3c3nc(-c4ccc(F)cc4)cn3CCP(=O)(OCC)OCC)CC[C@]3(C)[C@H](CC[C@@H]4[C@@]5(C)CC[C@H](OC(=O)[C@H]6C[C@@H](C(=O)O)C6(C)C)C(C)(C)[C@@H]5CC[C@]43C)[C@@H]12` 89.4 µg·h/mL

###

assay: Cyto-toxicity, MTT assay; assay type: cell-based; details: 0.1 uM, read-out: Cytotoxicity % viability
assay readout: viability at 4 days, 0.1 µM (%)
One number for each entry, in %.

Examples from the recorded data:
{"columns": ["entry smiles", "unit abbrev", "test result"],
 "data": [
  ["C=C(C)[C@@H]1CC[C@]2(C(=O)N3CCC[C@H]3c3nc4ccccc4n3CCN3CCCC3)CC[C@]3(C)[C@H](CC[C@@H]4[C@@]5(C)CC[C@H](OC(=O)[C@H]6C[C@@H](C(=O)O)C6(C)C)C(C)(C)[C@@H]5CC[C@]43C)[C@@H]12", "%", 3],
  ["C=C(C)[C@@H]1CC[C@]2(C(=O)N3C[C@H](OCCOC)C[C@H]3c3nc(-c4cccc(F)c4)cn3CCN3CCCC3)CC[C@]3(C)[C@H](CC[C@@H]4[C@@]5(C)CC[C@H](OC(=O)[C@H]6C[C@@H](C(=O)O)C6(C)C)C(C)(C)[C@@H]5CC[C@]43C)[C@@H]12", "%", 19],
  ["C=C(C)[C@@H]1CC[C@]2(C(=O)N3CCC[C@H]3c3nc4ccccc4n3CCN(C)C)CC[C@]3(C)[C@H](CC[C@@H]4[C@@]5(C)CC[C@H](OC(=O)[C@H]6C[C@@H](C(=O)O)C6(C)C)C(C)(C)[C@@H]5CC[C@]43C)[C@@H]12", "%", 1]
]}

Any idea what its viability at 4 days, 0.1 µM is? The compound is `C=C(C)[C@@H]1CC[C@]2(C(=O)N3C[C@H](OCCOC)C[C@H]3c3nc(-c4ccccc4)cn3CCN3CCCC3)CC[C@]3(C)[C@H](CC[C@@H]4[C@@]5(C)CC[C@H](OC(=O)[C@H]6C[C@@H](C(=O)O)C6(C)C)C(C)(C)[C@@H]5CC[C@]43C)[C@@H]12` 24

###

experiment: Single dose oral pharmacokinetic study; design: species or system mice; conditions: mouse, in vivo, po, 30 mg/kg
assay readout: Cmax (ng/mL)
Answers are plain numbers, in ng/mL.

Examples from the recorded data:
{"columns": ["entry smiles", "Cmax [ng/mL]"],
 "data": [
  ["C=C(C)[C@@H]1CC[C@]2(C(=O)N3CCC[C@H]3c3nc(-c4ccccc4)cn3CCN(C)C)CC[C@]3(C)[C@H](CC[C@@H]4[C@@]5(C)CC[C@H](OC(=O)[C@H]6C[C@@H](C(=O)O)C6(C)C)C(C)(C)[C@@H]5CC[C@]43C)[C@@H]12", 10400],
  ["C=C(C)[C@@H]1CC[C@]2(C(=O)N3CCC[C@H]3c3nc(-c4cccnc4)cn3CCN(C)C)CC[C@]3(C)[C@H](CC[C@@H]4[C@@]5(C)CC[C@H](OC(=O)[C@H]6C[C@@H](C(=O)O)C6(C)C)C(C)(C)[C@@H]5CC[C@]43C)[C@@H]12", 9460],
  ["C=C(C)[C@@H]1CC[C@]2(C(=O)N3C[C@H](OCCOC)C[C@H]3c3nc(-c4ccccc4)cn3CCN3CCCC3)CC[C@]3(C)[C@H](CC[C@@H]4[C@@]5(C)CC[C@H](OC(=O)[C@H]6C[C@@H](C(=O)O)C6(C)C)C(C)(C)[C@@H]5CC[C@]43C)[C@@H]12", 10900],
  ["C=C(C)[C@@H]1CC[C@]2(C(=O)N3CCC[C@H]3c3nc(-c4ccccc4)cn3CCOC)CC[C@]3(C)[C@H](CC[C@@H]4[C@@]5(C)CC[C@H](OC(=O)[C@H]6C[C@@H](C(=O)O)C6(C)C)C(C)(C)[C@@H]5CC[C@]43C)[C@@H]12", 9220],
  ["C=C(C)[C@@H]1CC[C@]2(C(=O)N3CCC[C@H]3c3nc(-c4ccccc4)cn3CCN3CCOCC3)CC[C@]3(C)[C@H](CC[C@@H]4[C@@]5(C)CC[C@H](OC(=O)[C@H]6C[C@@H](C(=O)O)C6(C)C)C(C)(C)[C@@H]5CC[C@]43C)[C@@H]12", 14700],
  ["CN(C)CCn1cc(-c2cccnc2)nc1[C@@H]1CCCN1C(=O)[C@]12CC[C@@H](C3(C)CC3)[C@@H]1[C@H]1CC[C@@H]3[C@@]4(C)CC[C@H](OC(=O)[C@H]5C[C@@H](C(=O)O)C5(C)C)C(C)(C)[C@@H]4CC[C@@]3(C)[C@]1(C)CC2", 4260]
]}

Shifting focus to the compound that follows.
Any idea what its Cmax is? The compound is `C=C(C)[C@@H]1CC[C@]2(C(=O)N3C[C@H](OCCOC)C[C@H]3c3nc(-c4ccccc4)cn3CCN(C)C)CC[C@]3(C)[C@H](CC[C@@H]4[C@@]5(C)CC[C@H](OC(=O)[C@H]6C[C@@H](C(=O)O)C6(C)C)C(C)(C)[C@@H]5CC[C@]43C)[C@@H]12` 17600
